Items are presented alongside their recorded Normalized Binding Signal, 300 nM.
TARGET_UNDER_TEST: T1, recombinant cyno Tie2 extracellular domain (cynomolgus monkey, UniProt Q02763 23-748 (human entry))
T1 construct: also called Recombinant cyno Tie2 ECD; cy Tie2
T1 chain: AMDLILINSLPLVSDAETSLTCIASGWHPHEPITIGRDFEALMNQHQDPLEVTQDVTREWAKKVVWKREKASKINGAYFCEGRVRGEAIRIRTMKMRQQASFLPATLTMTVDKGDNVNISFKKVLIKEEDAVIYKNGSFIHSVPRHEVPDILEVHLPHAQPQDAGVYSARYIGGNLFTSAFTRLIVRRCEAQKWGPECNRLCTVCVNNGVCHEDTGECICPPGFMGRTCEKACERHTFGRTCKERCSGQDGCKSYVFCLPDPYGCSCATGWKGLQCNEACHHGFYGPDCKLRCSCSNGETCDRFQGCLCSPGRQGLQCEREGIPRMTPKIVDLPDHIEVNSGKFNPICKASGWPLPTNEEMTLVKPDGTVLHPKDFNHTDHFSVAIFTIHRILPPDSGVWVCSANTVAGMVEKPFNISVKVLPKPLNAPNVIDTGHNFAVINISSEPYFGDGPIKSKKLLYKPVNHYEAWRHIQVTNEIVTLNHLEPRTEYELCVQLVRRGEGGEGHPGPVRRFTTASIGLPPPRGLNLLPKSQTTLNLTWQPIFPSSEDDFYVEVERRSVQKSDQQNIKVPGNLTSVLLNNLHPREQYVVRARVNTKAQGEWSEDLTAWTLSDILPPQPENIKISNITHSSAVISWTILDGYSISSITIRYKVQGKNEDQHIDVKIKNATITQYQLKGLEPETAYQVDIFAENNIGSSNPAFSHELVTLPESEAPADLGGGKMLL
TEST: SPR, IgG captured, 37C

BINDER | Normalized Binding Signal, 300 nM
Tie2.1 (antibody, human IgG1, V domains shown, human IgG1 in all later assays; also called Ab1; Tie2.1.M100c) VH: EVQLVESGGGLVQPGGSLRLSCAASGFTFSNTDISWVRQAPGKGLEWVGRISPSDGNTYYADSVKGRFTISADTSKNTAYLQMNSLRAEDTAVYYCARRTRWASWAMDYWGQGTLVTVSS VL: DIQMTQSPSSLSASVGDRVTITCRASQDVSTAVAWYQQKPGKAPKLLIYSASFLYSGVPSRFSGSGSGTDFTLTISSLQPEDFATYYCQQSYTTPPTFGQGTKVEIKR | 0.08
Tie2.1.M100cF (antibody, IgG1, V domains shown, hIgG1 in the SPR and binning assays) VH: EVQLVESGGGLVQPGGSLRLSCAASGFTFSNTDISWVRQAPGKGLEWVGRISPSDGNTYYADSVKGRFTISADTSKNTAYLQMNSLRAEDTAVYYCARRTRWASWAFDYWGQGTLVTVSS VL: DIQMTQSPSSLSASVGDRVTITCRASQDVSTAVAWYQQKPGKAPKLLIYSASFLYSGVPSRFSGSGSGTDFTLTISSLQPEDFATYYCQQSYTTPPTFGQGTKVEIK | 0.12
Tie2.1.M100cI (antibody, IgG1, name in Kabat numbering, V domains shown, hIgG1) VH: EVQLVESGGGLVQPGGSLRLSCAASGFTFSNTDISWVRQAPGKGLEWVGRISPSDGNTYYADSVKGRFTISADTSKNTAYLQMNSLRAEDTAVYYCARRTRWASWAIDYWGQGTLVTVSS VL: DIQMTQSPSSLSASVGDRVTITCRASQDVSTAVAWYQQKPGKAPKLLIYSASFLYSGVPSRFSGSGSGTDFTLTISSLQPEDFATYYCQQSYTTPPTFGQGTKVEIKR | 0.03
Tie2.1.M100cY (antibody, IgG1, name in Kabat numbering, V domains shown, hIgG1) VH: EVQLVESGGGLVQPGGSLRLSCAASGFTFSNTDISWVRQAPGKGLEWVGRISPSDGNTYYADSVKGRFTISADTSKNTAYLQMNSLRAEDTAVYYCARRTRWASWAYDYWGQGTLVTVSS VL: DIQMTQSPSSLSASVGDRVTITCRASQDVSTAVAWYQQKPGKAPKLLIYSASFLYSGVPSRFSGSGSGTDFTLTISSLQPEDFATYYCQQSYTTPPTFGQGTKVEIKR | 0.13
Tie2.1.M100cL (antibody, IgG1, name in Kabat numbering, V domains shown, hIgG1) VH: EVQLVESGGGLVQPGGSLRLSCAASGFTFSNTDISWVRQAPGKGLEWVGRISPSDGNTYYADSVKGRFTISADTSKNTAYLQMNSLRAEDTAVYYCARRTRWASWALDYWGQGTLVTVSS VL: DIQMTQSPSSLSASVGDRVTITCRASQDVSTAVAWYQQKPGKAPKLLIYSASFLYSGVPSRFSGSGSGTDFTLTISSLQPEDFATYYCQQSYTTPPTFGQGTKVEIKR | 0.11
